pIC50: −log10 of the molar value.
// note: pIC50 values for Vascular endothelial growth factor receptor 2 (Homo sapiens, UniProt P35968) were reported in different studies
ENDPOINT: pIC50

1) COc1cc2c(Nc3ccc(Cl)cc3F)ncnc2cc1OCCCN1CCN(C)CC1.Cl | 7.70

P: Cc1cc(C)cc(Nc2nccc(N(C)c3ccc4c(C)n(C)nc4c3)n2)c1
Q: COc1cc2nccc(CN3CCc4c(cccc4C(=O)Nc4ccc(Cl)cc4)C3)c2cc1OC
Request: Which of the two items, P and Q , has the greater recorded pIC50? Select an item and report its label.
Response: P
(P: 7.68, Q: 6.78)

* * *

// note: IC50 values for Vascular endothelial growth factor receptor 2 (Homo sapiens, UniProt P35968) were reported in different studies
ENDPOINT: IC50 (µM)

Previously resolved entries follow.
1) COc1cc2nccc(Oc3ccc4c(C(N)=O)cccc4c3)c2cc1C(C)=O | 0.0012
2) CC1(COc2ccnc(C#Cc3ccc4c5c(oc4c3)C(C)(C)c3cc(OCCN4CCOCC4)ccc3C5=O)c2)CC1 | 0.42
3) Cc1ccc(C(=O)NC2CC2)cc1-c1ccc2c(O[C@H](C)C(F)(F)F)nncc2c1 | 0.505
4) Cc1ccc(Nc2ncnn3cc(OCCCN4CCCCC4)c(C(C)C)c23)cc1O | 0.004
5) COc1cc2c(Nc3ccc(Cl)cc3F)ncnc2cc1OC[C@@H]1CCCN(C)C1 | 0.005

a: CCN(CC)CCOc1ccc(NC(=O)c2cccc(-c3cccc(O)c3)c2)cc1Cl
b: O=C(Nc1ccc(-c2cccc3c2CNC3=O)cc1)Nc1cccc(F)c1
c: COC(=O)c1ccc2c(c1)NC(=O)/C2=C(\Nc1ccc(NC(=O)CN2CCN(C)CC2)cc1)c1ccccc1
Request: // smallest IC50 at index 0, largest at the end Write the labels out in the order the request specifies.
Response: c, a, b
